molecular target: Voltage-dependent N-type calcium channel subunit alpha-1B (Homo sapiens); assay: Ability to block calcium channel N type 2.2v expressed in HEK293 cells at 10 uM by whole cell patch clamp method; assay type: functional, cell-based
Parameter inhibition: see the listing below.
State the answer as a number, implicitly in %.

compound: CCC(C)[C@@H]1N[C@H](C(=O)NCc2ccccc2)COC1=O (stereo not given in full)
studySystem: Voltage-dependent N-type calcium channel subunit alpha-1B (Homo sapiens)
unitSymbol: %
inhibition: 1.7
//
compound: C[C@H](NC(=O)[C@H]1COC(=O)[C@H](Cc2ccc(F)cc2)N1)c1ccccc1
studySystem: Voltage-dependent N-type calcium channel subunit alpha-1B (Homo sapiens)
unitSymbol: %
inhibition: 11.3
//
compound: O=C(NCc1ccccc1)[C@@H]1COC(=O)[C@H](Cc2ccccc2)N1 (relative stereo)
studySystem: Voltage-dependent N-type calcium channel subunit alpha-1B (Homo sapiens)
unitSymbol: %
inhibition: 4.8
//
compound: O=C(NCc1ccccc1)[C@@H]1COC(=O)[C@H](Cc2ccc(Cl)cc2)N1 (relative stereo)
studySystem: Voltage-dependent N-type calcium channel subunit alpha-1B (Homo sapiens)
unitSymbol: %
inhibition: 33.7
//
compound: O=C(NCc1ccccc1)[C@@H]1COC(=O)[C@H](Cc2ccc(F)cc2)N1 (relative stereo)
studySystem: Voltage-dependent N-type calcium channel subunit alpha-1B (Homo sapiens)
unitSymbol: %
inhibition: 7.1

Q: Give the measured inhibition of CC(C)[C@@H]1N[C@H](C(=O)NCc2ccccc2)COC1=O (relative stereo) .
Result: 25.3

Q: Give the measured inhibition of COCC(=O)O[C@]1(CCN(C)CCCc2nc3ccccc3[nH]2)CCc2cc(F)ccc2[C@@H]1C(C)C .
Result: 57.4

Q: Give the measured inhibition of C[C@H](NC(=O)[C@@H]1COC(=O)[C@H](Cc2ccc([N+](=O)[O-])cc2)N1)c1ccccc1 .
Result: 4

---

molecular target: Voltage-dependent T-type calcium channel subunit alpha-1H (Homo sapiens) (UniProt O95180); test: Ability to block calcium channel T type 3.2v expressed in Xenopus oocytes at 100 uM by two-microelectrode voltage-clamp method; type: functional, cell-based; settings: Oocyte
Sequence (O95180 whole entry): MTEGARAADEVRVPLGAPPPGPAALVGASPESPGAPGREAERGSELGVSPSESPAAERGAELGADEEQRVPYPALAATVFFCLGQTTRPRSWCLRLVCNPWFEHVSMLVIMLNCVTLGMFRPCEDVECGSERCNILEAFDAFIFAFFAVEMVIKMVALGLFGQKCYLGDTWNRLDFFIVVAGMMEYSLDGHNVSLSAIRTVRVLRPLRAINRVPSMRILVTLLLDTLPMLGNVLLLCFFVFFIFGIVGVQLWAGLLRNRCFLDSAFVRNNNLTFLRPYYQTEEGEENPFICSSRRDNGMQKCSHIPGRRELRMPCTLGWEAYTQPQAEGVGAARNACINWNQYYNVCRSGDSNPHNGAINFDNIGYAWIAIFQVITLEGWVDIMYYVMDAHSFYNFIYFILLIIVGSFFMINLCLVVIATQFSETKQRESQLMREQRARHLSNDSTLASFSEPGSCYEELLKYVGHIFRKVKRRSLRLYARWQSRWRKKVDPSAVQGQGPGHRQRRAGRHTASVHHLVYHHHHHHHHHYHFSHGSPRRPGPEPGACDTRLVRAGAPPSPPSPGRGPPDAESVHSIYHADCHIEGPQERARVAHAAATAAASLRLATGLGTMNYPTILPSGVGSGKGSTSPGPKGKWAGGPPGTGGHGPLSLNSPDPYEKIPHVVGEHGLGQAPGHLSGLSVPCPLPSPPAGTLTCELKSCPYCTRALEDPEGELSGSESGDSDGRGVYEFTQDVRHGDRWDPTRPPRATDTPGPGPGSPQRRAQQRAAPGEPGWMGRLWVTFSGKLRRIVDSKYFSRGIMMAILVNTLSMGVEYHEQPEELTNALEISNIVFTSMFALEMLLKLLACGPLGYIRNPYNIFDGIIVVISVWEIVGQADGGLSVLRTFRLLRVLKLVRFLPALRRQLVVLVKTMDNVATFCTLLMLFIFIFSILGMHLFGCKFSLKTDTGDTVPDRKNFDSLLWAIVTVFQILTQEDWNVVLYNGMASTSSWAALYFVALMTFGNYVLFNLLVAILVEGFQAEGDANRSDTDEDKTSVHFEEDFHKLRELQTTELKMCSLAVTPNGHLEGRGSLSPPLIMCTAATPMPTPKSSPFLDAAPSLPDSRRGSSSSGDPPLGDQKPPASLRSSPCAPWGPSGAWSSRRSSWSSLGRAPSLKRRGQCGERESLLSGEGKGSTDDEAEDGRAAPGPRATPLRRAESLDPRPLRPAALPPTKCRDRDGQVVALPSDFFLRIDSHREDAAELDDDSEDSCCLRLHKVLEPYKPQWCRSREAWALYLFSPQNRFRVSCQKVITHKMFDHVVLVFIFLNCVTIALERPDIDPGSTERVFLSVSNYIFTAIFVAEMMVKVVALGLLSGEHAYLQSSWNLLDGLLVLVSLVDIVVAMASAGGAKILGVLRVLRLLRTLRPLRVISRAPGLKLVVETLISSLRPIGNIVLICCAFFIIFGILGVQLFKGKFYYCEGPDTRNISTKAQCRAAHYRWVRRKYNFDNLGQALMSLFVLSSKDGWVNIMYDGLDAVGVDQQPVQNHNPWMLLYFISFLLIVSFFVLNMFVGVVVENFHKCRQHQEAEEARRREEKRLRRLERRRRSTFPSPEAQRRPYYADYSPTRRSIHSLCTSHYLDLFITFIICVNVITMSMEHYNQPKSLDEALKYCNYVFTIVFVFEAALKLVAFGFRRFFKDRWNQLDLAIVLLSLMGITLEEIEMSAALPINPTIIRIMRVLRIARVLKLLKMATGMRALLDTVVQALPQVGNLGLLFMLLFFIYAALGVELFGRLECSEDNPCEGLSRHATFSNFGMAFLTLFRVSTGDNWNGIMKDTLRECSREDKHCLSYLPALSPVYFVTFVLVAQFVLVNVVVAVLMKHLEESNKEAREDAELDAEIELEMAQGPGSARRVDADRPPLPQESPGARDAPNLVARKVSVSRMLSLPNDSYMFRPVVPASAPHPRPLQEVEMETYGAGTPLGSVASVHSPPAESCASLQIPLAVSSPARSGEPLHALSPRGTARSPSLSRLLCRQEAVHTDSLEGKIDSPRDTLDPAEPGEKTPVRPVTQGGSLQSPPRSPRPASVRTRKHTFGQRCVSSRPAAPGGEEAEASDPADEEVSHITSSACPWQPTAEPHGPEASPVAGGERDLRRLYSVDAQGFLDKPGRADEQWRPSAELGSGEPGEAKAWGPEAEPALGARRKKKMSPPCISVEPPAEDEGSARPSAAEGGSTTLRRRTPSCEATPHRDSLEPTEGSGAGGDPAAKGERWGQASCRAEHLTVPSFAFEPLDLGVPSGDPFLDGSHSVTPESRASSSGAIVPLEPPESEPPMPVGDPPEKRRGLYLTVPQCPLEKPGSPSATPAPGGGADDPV
Answer FALSE if inhibition is under 50%, and TRUE if it is 50% or more.

molecule: CCC(C)[C@@H]1N[C@H](C(=O)NCc2ccccc2)COC1=O (some centres not stated)
category: TRUE
--
molecule: Cc1ccc(S(=O)(=O)CNC(=O)[C@@H]2COC(=O)[C@H](Cc3ccccc3)N2)cc1 (relative stereo)
category: FALSE
--
molecule: C[C@H](NC(=O)[C@H]1COC(=O)[C@H](Cc2ccc(O)cc2)N1)c1ccccc1
category: FALSE
--
molecule: O=C1OC[C@H](C(=O)NC2CCCCC2)N[C@H]1Cc1ccccc1 (relative stereo)
category: FALSE
--
molecule: O=C(NC1CCCCC1)[C@@H]1COC(=O)[C@H](Cc2ccccc2)N1 (relative stereo)
category: TRUE

Q: # bool: inhibition of O=C(NCc1ccccc1)[C@@H]1COC(=O)[C@H](Cc2ccc(F)cc2)N1 (relative stereo) >= 50%
Result: TRUE

Q: # bool: inhibition of CC(C)(C)NC(=O)[C@@H]1COC(=O)[C@H](Cc2ccccc2)N1 (relative stereo) >= 50%
Result: FALSE

Q: # bool: inhibition of O=C1OC[C@H](C(=O)NCc2ccccc2)N[C@H]1Cc1ccccc1 (relative stereo) >= 50%
Result: FALSE

Q: # bool: inhibition of C[C@H](NC(=O)[C@@H]1COC(=O)[C@H](Cc2ccc([N+](=O)[O-])cc2)N1)c1ccccc1 >= 50%
Result: TRUE

Q: # bool: inhibition of C[C@H](NC(=O)[C@H]1COC(=O)[C@H](Cc2ccc(F)cc2)N1)c1ccccc1 >= 50%
Result: TRUE

Q: # bool: inhibition of Cc1ccc(S(=O)(=O)CNC(=O)[C@H]2COC(=O)[C@H](Cc3ccccc3)N2)cc1 (relative stereo) >= 50%
Result: FALSE
